Reference source: patent US20250313625A1

- TARGET_OR_SYSTEM: T1, cyno LAG3, full length, stably expressed on 293F cells (cyno)
- T1 construct: whole, on cells
- EXPERIMENT_SUMMARY: FACS on 293F-cyno LAG3 cells, 20 nM antibody
EXPERIMENTAL_READOUT: MFI at 20 nM

Ask: If you can, please state the reported MFI at 20 nM value of Antibody 035 (antibody, V domains shown, mouse hybridoma antibody) VH: QVQLQQSGAELARPGASVKLSCKASGYSFTSYGINWVKQRTGQGLEWIGEIYPRSGNTYYNEKFKDKATLTADKSSSTAYMELRSLTSEDSAVYFCARGGTYDGYYYAMDFWGQGTSVTVSS VL: DIVLTQSPASLAVSLGQRATISCRASESVDNFGSSFLHWYQQKPGQAPKLLIYRASNLESGIPARFSGSGSRTDFTLTINPVETDDVATYYCQQVNKDPRTFGGGTKLEIK .
Result: 155 MFI

Ask: Follow-up item: Antibody 047 (antibody, V domains shown, mouse hybridoma antibody) VH: QVQLQQSGAELARPGASVKLSCKASGYSFTSYGVNWVKQRTGQGLEWIGEIYPRSGNTYYNERFGDKATLTADKSSSTAYMEIRSLTSEDSAVYFCARGGTYDGYYYAMDYWGQGTSVTVSS VL: DIVLTQSPASLAVSLGQRATISCRASESVDNFGSSFMHWYQQKPGQAPKLLIYRASNLESGIPARFSGSGSRTDFTLTINPVETDDVATYYCQQVNKDPRTFGGGTKLEIK
Result: 129 MFI

Ask: Follow-up item: Antibody 024 (antibody, V domains shown, mouse hybridoma antibody) VH: EVQLQQSGPELVKPGASVKISCKASGYTFTDYYMNWVKQSHGKRLEWIGDIDPNNGGTSYNQKFKGKATLTVDKSSSSAYMDLRSLTSEDSAVYYCARAGSYYYGSSYVEYFDVWGTGTTVTVSS VL: DIQMTQSPASLSASVGETVTITCRASGNIHNYLAWYQQKQGASPQLLVYNAKTLADGVPSRFSGSGSGTEFSLKINSLQPEDFGNYYCQHFWNTPYTFGGGTKLEIK
Result: 154 MFI

Ask: Follow-up item: Antibody 033 (antibody, V domains shown, mouse hybridoma antibody) VH: EVQLQQSGAELVRPGASVKLSCTASDFNIKDDYIHWVKQRPEQGLEWIGWIDLENGDTEYASKFQGKATITADTSSNTAYLQLSSLTSEDTAVYYCTTKGSHWGQGTLVTVSA VL: DVVMTQIPLSLPVSLGDQASISCRSSQSLVYSNGNTYLNWYLQKPGQSPKLLIHKVSNRFSGVPDRFSGSGSGTDFTLKISRVEAEDLGVYFCSQSTHVPYTFGGGTKLEIR
Result: 83.4 MFI
